- Test system: S. cerevisiae Mot1-301 ts growth rescue, BacTiter-Glo ATP luminescence
- Experiment: restored Mot1-301 yeast growth at 38.5C – whole organism, S. cerevisiae, Mot1-301 ts mutant, luminescence, dose retest, SUMOylation pathway inhibitor project, confirmation (AID 463204);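 further: growth at restrictive 38.5 degrees C of Mot1-301 OY566 strain; actives raise luminescence by restoring growth of the ts mutant at high temperature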
The source made the active and inactive calls.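 How the source made its calls: active means AC50 no more than ten times the top concentration tested, that is within one log above it; inconclusive means flat curve fit with activity between 30% and 70%, or invalid poor fit; inactive means AC50 beyond ten times the top tested dose.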
Property label: AC50

QUERY: Name the recorded AC50 for COc1cccc(C(=O)NCc2ccc(-c3nc4ccccc4s3)cc2)c1 .
RESULT: > 42 µM (inactive)

QUERY: // query AC50 value for entry CN1C(=O)C(O)(CC(=O)c2ccccc2O)c2cc(Br)ccc21 (stereo not given)
RESULT: > 42 µM (inactive)

QUERY: Quick one: AC50 of Cc1onc(-c2ccccc2)c1C(=O)N/N=C/C=C/c1ccccc1 ?
RESULT: > 42 µM (inactive)

QUERY: Reported AC50 for O=C(CN1c2ccccc2Sc2ccccc21)N/N=C/c1ccc(Cl)cc1Cl : what is it?
RESULT: > 21 µM (inactive)

QUERY: Which measured AC50 value corresponds to O=C(CSc1cccc2cccnc12)Nc1cc(C(=O)O)cc(C(=O)O)c1 ?
RESULT: > 42 µM (inactive)
